System: WPMY1-TUBA1B-RELA
methodDescription: phenotypically active (imaging signature differs from DMSO and reproducible) at any of 0.3-9 uM (binary (1 = active, 0 = inactive)); higher = active
conditionLabel: treatment time: 24 h
Documented phenotypically active across a set of compounds
Would you mind answering with just the numeric figure?

COc1ccccc1S(=O)(=O)Nc1ccc2c(c1)CN(C)C(=O)N2 :: 1
CC[C@@H](N)CNc1ccnc(-c2cc(-c3cnn(C)c3)ccc2O)n1 :: 1
COc1ccc(CCN(C)CCCC(C#N)(c2ccc(OC)c(OC)c2)C(C)C)cc1OC (configuration not stated) :: 0
Cc1occc(=O)c1O [3-hydroxy-2-methyl-4-pyrone] :: 0
NC(=O)c1cccc(-c2cccc(OC(=O)NC3CCCCC3)c2)c1 :: 0

**Query** Please respond with reported phenotypically active (system WPMY1-TUBA1B-RELA) for CCCC(=O)O[C@]1(C(=O)COC(C)=O)CC[C@H]2[C@@H]3C[C@H](F)C4=CC(=O)C=C[C@]4(C)[C@@]3(F)[C@@H](O)C[C@@]21C [difluprednate] .
**Result** 0

**Query** Please respond with reported phenotypically active (system WPMY1-TUBA1B-RELA) for COc1ccccc1OCC(O)CN1CCN(CC(=O)Nc2c(C)cccc2C)CC1 (configuration not stated) .
**Result** 0

**Query** Please respond with reported phenotypically active (system WPMY1-TUBA1B-RELA) for CN(C(=O)CCCOc1ccc2[nH]c(=O)ccc2c1)C1CCCCC1 [Cilostamide] .
**Result** 0

**Query** Please respond with reported phenotypically active (system WPMY1-TUBA1B-RELA) for `O=C(Nc1nc2cc(C(F)(F)F)cc(NC3CC3)n2n1)c1cccnc1` .
**Result** 0
